Entry source: patent US20250020635A1

# maps each entry to its Kinetic solubility
assay: Kinetic solubility in pH 7.4 phosphate buffer; assay type: physicochemical

As a guide, the following entries are already answered.
[[record]]
molecule = "O=S(=O)(Nc1ccc(Br)cc1F)c1cccs1"
reported_value = ">100 µM"

[[record]]
molecule = "O=S(=O)(Nc1cccc(C(F)(F)F)c1)c1ccccc1"
reported_value = ">100 µM"

[[record]]
molecule = "Cc1cc(C)c(S(=O)(=O)Nc2cccc(C(F)F)c2)c(C)c1"
reported_value = "41 to 60 µM"

[[record]]
molecule = "Cc1cc(C)c(S(=O)(=O)Nc2cccc(C#N)c2)c(C)c1"
reported_value = "81 to 100 µM"


Shifting focus to the molecule that follows.
Return reported Kinetic solubility; argument: Cc1cc(C)c(S(=O)(=O)Nc2cccc(C(F)(F)F)c2)c(C)c1 [Compound 1, reference compound]
21 to 40 µM

* * *

tested on: HMC3 cells; experiment: Microglial phagocytosis/cell health high-content assay, HMC3 cells; format: cell-based; conditions: 24-hr treatment, read-out: inhibition of phagocytosis IC50
property: IC50

Return reported IC50; argument: `C=C1[C@@H](C)[C@H]2[C@H](Cc3ccccc3)NC(=O)[C@]23[C@H](OC(C)=O)/C=C/[C@@](C)(O)C(=O)[C@@H](C)C/C=C/[C@H]3[C@@H]1O`
138 nM

* * *

target: PLCγ2-HiBit (Homo sapiens, UniProt P16885); construct: expressed in transfected cells; host or cells: HMC3 cells; experiment: Cellular thermal shift assay (SplitLuc CETSA), PLCγ2-HiBit in HMC3 cells; assay type: cell-based; settings: Table 1; CETSA dose response; read-out: AC50
property: AC50 (µM)
Your answer should be a plain number; it is taken to be in µM.

Provide value of AC50 for this record tested with PLCγ2-HiBit (Homo sapiens, UniProt P16885): `Cc1cc(Br)ccc1S(=O)(=O)Nc1cccc(C(F)(F)F)c1`
57

Consider next the compound `O=S(=O)(Nc1cccc(C(F)(F)F)c1)c1ccc(Cl)cc1Cl` in the same way.
71

* * *

# maps each entry to its Papp, MDCK permeability
test system: MDCK; test: MDCK permeability; format: in vitro ADME; conditions: estimate of intestinal absorption

As a guide, the following entries are already answered.
[[record]]
smiles_code = "Cc1cc(C)c(S(=O)(=O)Nc2cccc(C(F)F)c2)c(C)c1"
reported_value = "37.4 ×10−^6 cm/s"

[[record]]
smiles_code = "Cc1cc(C)c(S(=O)(=O)Nc2cccc(C#N)c2)c(C)c1"
reported_value = "69.8 ×10−^6 cm/s"

[[record]]
smiles_code = "O=S(=O)(Nc1cccc(C(F)(F)F)c1)c1ccccc1"
reported_value = "79.7 ×10−^6 cm/s"


Shifting focus to the compound that follows.
Return reported Papp, MDCK permeability; argument: `O=S(=O)(Nc1ccc(Br)cc1F)c1cccs1`
95.0 ×10−^6 cm/s

* * *

# maps each entry to its AC50
Biological target: PLCγ2-HiBit (Homo sapiens)
Construct: expressed in transfected cells; host or cells: HMC3 cells
Sequence (P16885 1-1265): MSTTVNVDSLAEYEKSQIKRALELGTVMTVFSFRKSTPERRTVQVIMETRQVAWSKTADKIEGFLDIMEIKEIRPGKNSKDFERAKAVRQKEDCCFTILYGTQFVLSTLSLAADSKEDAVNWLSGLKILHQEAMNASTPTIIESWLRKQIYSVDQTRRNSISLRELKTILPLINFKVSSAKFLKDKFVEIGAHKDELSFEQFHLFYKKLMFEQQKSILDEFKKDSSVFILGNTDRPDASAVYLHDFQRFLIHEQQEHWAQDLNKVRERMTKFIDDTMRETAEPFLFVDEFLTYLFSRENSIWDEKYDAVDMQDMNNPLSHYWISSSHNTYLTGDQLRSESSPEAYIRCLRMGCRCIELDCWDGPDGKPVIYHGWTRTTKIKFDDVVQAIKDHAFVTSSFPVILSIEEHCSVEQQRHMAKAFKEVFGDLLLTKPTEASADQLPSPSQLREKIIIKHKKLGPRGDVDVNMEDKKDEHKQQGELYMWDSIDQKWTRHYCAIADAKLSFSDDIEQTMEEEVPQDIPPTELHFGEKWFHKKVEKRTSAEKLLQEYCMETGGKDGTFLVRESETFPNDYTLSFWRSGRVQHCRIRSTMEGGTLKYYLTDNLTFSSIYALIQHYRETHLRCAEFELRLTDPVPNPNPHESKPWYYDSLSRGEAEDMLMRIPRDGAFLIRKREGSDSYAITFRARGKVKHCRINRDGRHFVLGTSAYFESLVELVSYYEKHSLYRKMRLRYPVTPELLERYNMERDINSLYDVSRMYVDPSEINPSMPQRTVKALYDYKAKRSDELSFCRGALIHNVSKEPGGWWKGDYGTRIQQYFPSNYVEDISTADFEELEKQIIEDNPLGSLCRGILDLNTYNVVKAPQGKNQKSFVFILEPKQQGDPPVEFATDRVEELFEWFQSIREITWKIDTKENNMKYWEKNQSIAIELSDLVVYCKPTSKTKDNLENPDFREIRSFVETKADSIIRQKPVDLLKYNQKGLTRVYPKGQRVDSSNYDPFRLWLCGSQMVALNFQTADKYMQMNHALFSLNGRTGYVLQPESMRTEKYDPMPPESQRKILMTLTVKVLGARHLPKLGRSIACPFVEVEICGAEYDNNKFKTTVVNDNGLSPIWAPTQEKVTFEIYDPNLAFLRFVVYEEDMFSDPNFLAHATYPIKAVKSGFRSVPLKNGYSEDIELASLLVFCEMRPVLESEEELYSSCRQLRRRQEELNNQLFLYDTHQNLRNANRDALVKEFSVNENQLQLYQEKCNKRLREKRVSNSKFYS
Assay: Cellular thermal shift assay (SplitLuc CETSA), PLCγ2-HiBit in HMC3 cells
Type: cell-based
Conditions: Table 5; 8-point dose response from 100 μM, HMC3 cells, 45.9° C.; read-out: AC50, concentration that induced a half-maximum loss of luminesce compared to control
Your answer should be a plain number; it is taken to be in µM.

[[record]]
smiles_code = "Cc1cc(Br)ccc1S(=O)(=O)Nc1cccc(C(F)(F)F)c1"
assayed_system = "PLCγ2-HiBit (Homo sapiens)"
reported_value = 57


Shifting focus to the compound that follows.
Provide value of AC50 for this record tested with PLCγ2-HiBit (Homo sapiens): `O=S(=O)(Nc1cccc(C(F)(F)F)c1)c1ccc(Cl)cc1Cl`
71
